Assay system: IKBKB (IKK-β) (Homo sapiens, UniProt O14920)
Construct: purchased Invitrogen (Paisley, UK)
Sequence (O14920 whole entry): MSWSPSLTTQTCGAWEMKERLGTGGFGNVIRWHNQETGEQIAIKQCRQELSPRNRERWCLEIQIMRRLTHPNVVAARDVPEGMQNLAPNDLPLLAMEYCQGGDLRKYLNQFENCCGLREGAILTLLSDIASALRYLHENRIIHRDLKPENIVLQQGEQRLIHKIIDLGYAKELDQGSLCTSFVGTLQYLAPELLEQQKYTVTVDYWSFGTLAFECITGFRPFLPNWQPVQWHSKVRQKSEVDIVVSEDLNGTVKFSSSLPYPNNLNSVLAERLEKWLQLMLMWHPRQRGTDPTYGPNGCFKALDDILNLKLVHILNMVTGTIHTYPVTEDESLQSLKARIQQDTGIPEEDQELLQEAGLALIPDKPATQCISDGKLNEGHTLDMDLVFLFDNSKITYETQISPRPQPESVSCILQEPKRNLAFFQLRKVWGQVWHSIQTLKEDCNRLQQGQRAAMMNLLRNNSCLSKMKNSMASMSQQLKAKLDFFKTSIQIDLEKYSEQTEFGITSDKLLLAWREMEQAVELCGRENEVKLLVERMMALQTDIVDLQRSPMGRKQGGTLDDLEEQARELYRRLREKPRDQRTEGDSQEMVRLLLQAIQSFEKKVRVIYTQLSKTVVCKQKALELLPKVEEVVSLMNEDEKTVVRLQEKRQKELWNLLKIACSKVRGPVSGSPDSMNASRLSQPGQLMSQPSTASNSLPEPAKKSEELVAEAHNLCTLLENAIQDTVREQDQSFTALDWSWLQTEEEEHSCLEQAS
Assay summary: IKKβ enzyme assay (Z'-LYTE, Invitrogen)
Format: biochemical
Condition details: read-out: Enzyme IC50 (nM) vs IKKβ
Kindly supply the reported IC50 values for the records listed here.
Give your result in nM as a bare value.

Supply IC50 measured with IKBKB (IKK-β) (Homo sapiens, UniProt O14920) for CC(C)(NCc1cccc(-c2cc(C(N)=O)c(NC(N)=O)s2)c1)C(=O)OC1CCCC1 [Example 1] .
132

Under IKBKB (IKK-β) (Homo sapiens, UniProt O14920), report IC50 for NC(=O)Nc1sc(-c2ccccc2)cc1C(N)=O [Compound I, reference compound]
5
